# target of assay: Collagenase
# run description: Inhibition of collagenase (acetylated 14C collagen hydrolysis; Cawston and Barrett)
# measurement parameters: 37°, 16 hours, pH 7.5, read-out: In vitro inhibitory activity IC50, Collagenase
readout type: IC50 (nM)
Quick note: give the figure in nM, leave out the unit.

// solved cases for IC50 follow
{"compound": "CNC(=O)[C@H](CC(C)C)NC(=O)[C@H](CC(C)C)[C@H](O)C(=O)NO [Comparator 5, reference compound]", "readout number": 8}
{"compound": "CNC(=O)[C@@H](NC(=O)[C@@H](CC(=O)NO)CC(C)C)C(C)(C)C [Comparator 3, reference compound]", "readout number": 10}
{"compound": "CC(C)C[C@@H](C(=O)N[C@H](C(=O)Nc1ccccn1)C(C)(C)C)[C@H](O)C(=O)NO", "readout number": 6}
{"compound": "CC(C)C[C@@H](C(=O)N[C@H](C(=O)Nc1ccccc1)C(C)(C)C)[C@H](O)C(=O)NO", "readout number": 2}
{"compound": "CC(C)C[C@H](NC(=O)[C@H](CC(C)C)[C@H](O)C(=O)NO)C(=O)Nc1ccc2ccccc2c1", "readout number": 30}
{"compound": "CC(C)C[C@H](CC(=O)NO)C(=O)N[C@H](C(=O)Nc1ccccn1)C(C)(C)C", "readout number": 40}
{"compound": "CNC(=O)[C@H](Cc1ccccc1)NC(=O)[C@H](CC(C)C)[C@H](O)C(=O)NO [Comparator 4, reference compound]", "readout number": 15}

# ---- query compound ----
Data request: Please tell me: IC50 of "COc1ccc(NC(=O)[C@H](Cc2ccccc2)NC(=O)[C@H](CC(C)C)[C@H](O)C(=O)NO)cc1" , system Collagenase?
Data returned: 30
